# study system: HLA-B*07:02
# procedure details: IEDB peptide-MHC binding, purified MHC/competitive/radioactivity; filed as Kd, often an IC50 or EC50 that approximates it; bounds were set here for any values at or beyond the usual limits of such assays
# test context: source organism: Mammarenavirus juninense
assay endpoint: Kd

• HPDMDSLMI = 1720 nM

* * *

# study system: HLA-B*40:01
# procedure details: IEDB peptide-MHC binding, purified MHC/direct/fluorescence; filed as Kd, often an IC50 or EC50 that approximates it; bounds were set here for any values at or beyond the usual limits of such assays
# test context: source organism: Amur virus
assay endpoint: Kd (µM)

* YECETYKEL | 0.0148

* * *

# study system: HLA-A*69:01
# procedure details: IEDB peptide-MHC binding, purified MHC/direct/fluorescence; filed as Kd, often an IC50 or EC50 that approximates it; bounds were set here for any values at or beyond the usual limits of such assays
# test context: source organism: Influenza A virus (A/duck/Hokkaido/1130/01(H1N1))
pKd: −log10 of the molar value.
assay endpoint: pKd

• ELRSRYWAI = 6.82

* * *

# study system: HLA-B*46:01
# procedure details: IEDB peptide-MHC binding, purified MHC/direct/fluorescence; filed as Kd, often an IC50 or EC50 that approximates it; bounds were set here for any values at or beyond the usual limits of such assays
# test context: source organism: Giardia intestinalis
pKd: −log10 of the molar value.
assay endpoint: pKd

- INTLESMMK: ≤ 4.70

* * *

Recorded pKd for the following sequences
# study system: HLA-A*24:02
# procedure details: IEDB peptide-MHC binding, purified MHC/competitive/radioactivity; filed as Kd, often an IC50 or EC50 that approximates it; bounds were set here for any values at or beyond the usual limits of such assays
# test context: source organism: Mammarenavirus guanaritoense
pKd: −log10 of the molar value.
assay endpoint: pKd

- KVINLSELL: 4.75
- SWLDFDEKLV: 4.85
- FFQDIPIFF: 6.80

* * *

# study system: HLA-A*03:01
# procedure details: IEDB peptide-MHC binding, purified MHC/direct/fluorescence; filed as Kd, often an IC50 or EC50 that approximates it; bounds were set here for any values at or beyond the usual limits of such assays
# test context: source organism: Pseudomonas putida
assay endpoint: Kd

* NWDWGVFFK | ≥ 20 µM

* * *

# study system: HLA-B*18:01
# procedure details: IEDB peptide-MHC binding, purified MHC/direct/fluorescence; filed as Kd, often an IC50 or EC50 that approximates it; bounds were set here for any values at or beyond the usual limits of such assays
# test context: source organism: Francisella tularensis subsp. holarctica LVS
assay endpoint: Kd (µM)

- REMGIVDLL: 0.514

* * *

# study system: HLA-A*03:01
# procedure details: IEDB peptide-MHC binding, purified MHC/competitive/fluorescence; filed as Kd, often an IC50 or EC50 that approximates it; bounds were set here for any values at or beyond the usual limits of such assays
# test context: source organism: Entamoeba dispar SAW760
// reported Kd per item
assay endpoint: Kd

- FELLHFISS: ≥ 20 µM
- LVGNTLTTC: ≥ 20 µM

* * *

# study system: HLA-B*15:01
# procedure details: IEDB peptide-MHC binding, purified MHC/competitive/radioactivity; filed as Kd, often an IC50 or EC50 that approximates it; bounds were set here for any values at or beyond the usual limits of such assays
# test context: source organism: Vaccinia virus WR
assay endpoint: Kd (nM)

- FIYLLFASM: 999
- SSQVKCCHY: 347
- SSKVFLKAF: 1.7
- LIGARRTSF: 40.1
- YGANYFLQI: 1760
- SARGLCAHI: 1220
- LIRNKRLSL: 455
- RLQPNQPPK: 934
- RSHIRKPPS: 11000
- LLSRYDEHF: 54
- SLIYLCTFM: 4.45
- MIKIALSVA: 2780
- CSAPPGQHM: 52.7
- RLNPEVSYF: 0.304
- SMKYLMLLF: 3.84
- LMCPDECPG: 899
